Values compiled from patent US20190336574A1.

- EXPERIMENTAL_TARGET: T1, His-SND1 (16-339), SN1/2 domains, wild type (human, UniProt Q7KZF4 16-339)
- T1 construct: also called His6-SND1 harboring the SN1/2 domains; not shown: N-terminal His tag (His6, His8 or His) with TEV site, pQlink vector
- T1 sequence: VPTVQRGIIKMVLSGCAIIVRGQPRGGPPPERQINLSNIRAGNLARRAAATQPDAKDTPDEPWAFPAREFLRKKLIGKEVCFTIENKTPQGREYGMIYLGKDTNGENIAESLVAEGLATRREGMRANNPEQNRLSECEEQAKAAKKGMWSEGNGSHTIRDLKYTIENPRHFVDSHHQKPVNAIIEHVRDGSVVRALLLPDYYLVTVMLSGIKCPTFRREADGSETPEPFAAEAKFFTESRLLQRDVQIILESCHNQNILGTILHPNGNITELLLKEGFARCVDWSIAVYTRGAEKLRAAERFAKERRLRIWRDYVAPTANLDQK
- ASSAY_TEXT: GST pull-down on glutathione resin, SDS-PAGE, Coomassie blue; normalised percentage of binding, mean±SEM of three experiments
READOUT_KIND: % Maximum binding

Take a look at these entries with their results.
BINDER: GST-MTDH (364-582) N403A (other, not shown: N-terminal GST tag with TEV site, pQlink vector) YQWDVSRNQPYIDDEWSGLNGLSSADPNSDWNAPAEEWGAWVDEERASLLKSQEPIPDDQKVSDDDKEKGEGALPTGKSKKKKKKKKKQGEDNSTAQDTEELEKEIREDLPVNTSKTRPKQEKAFSLKTISTSDPAEVLVKNSQPIKTLPPATSTEPSVILSKSDSDKSSSQVPPILQETDKSKSNTKQNSVPPSQTKSETSWESPKQIKKKKKARRET
READOUT_KIND: % Maximum binding
RECORDED_VALUE: 68%
//
BINDER: GST-MTDH (364-582), wild type (other, not shown: N-terminal GST tag with TEV site, pQlink vector) YQWDVSRNQPYIDDEWSGLNGLSSADPNSDWNAPAEEWGNWVDEERASLLKSQEPIPDDQKVSDDDKEKGEGALPTGKSKKKKKKKKKQGEDNSTAQDTEELEKEIREDLPVNTSKTRPKQEKAFSLKTISTSDPAEVLVKNSQPIKTLPPATSTEPSVILSKSDSDKSSSQVPPILQETDKSKSNTKQNSVPPSQTKSETSWESPKQIKKKKKARRET
READOUT_KIND: % Maximum binding
RECORDED_VALUE: 100%

Below: the item to evaluate.
Prompt: Provide only the value of recorded % Maximum binding for GST-MTDH (364-582) D389R (other, not shown: N-terminal GST tag with TEV site, pQlink vector) YQWDVSRNQPYIDDEWSGLNGLSSARPNSDWNAPAEEWGNWVDEERASLLKSQEPIPDDQKVSDDDKEKGEGALPTGKSKKKKKKKKKQGEDNSTAQDTEELEKEIREDLPVNTSKTRPKQEKAFSLKTISTSDPAEVLVKNSQPIKTLPPATSTEPSVILSKSDSDKSSSQVPPILQETDKSKSNTKQNSVPPSQTKSETSWESPKQIKKKKKARRET
Completion: 60%
